System: NCI-H23 lung
Assay: NCI tumour cell line growth inhibition, 48 h
PROPERTY_LABEL: TGI

1) COc1ccc(-n2c(C)nc3ccc(NC4OC(CO)C(O)C(O)C4O)cc3c2=O)cc1 (stereo not drawn)
> 100 µM
2) CN(CCNC(=S)c1cn(C)c2c1ccc1ccccc12)CCNC(=S)c1cn(C)c2c1ccc1ccccc12
> 100 µM
3) Nc1[nH]c(=O)[nH]c(=O)c1Cc1cccc(Cl)c1
> 100 µM

----------
Tested on: MOLT-4 leukemia
Assay: NCI tumour cell line growth inhibition, 48 h; in the data active means GI50 below about 0.43 µM; inactive means the rest
Classes used: yes for active, no for inactive

1. C=C1C(=O)O[C@H]2[C@H]1CC/C(COC(=O)NCc1c[nH]c3ccc(F)cc13)=C\CC[C@@]1(C)O[C@@H]21
no
2. N#Cc1cc2c(cc1Cl)Sc1nnc(Nc3cccc4ccccc34)n1S2(=O)=O
no
3. COC1=C(OC)[C@]2(OC)c3c(O)c(OC)c4c(c3O[C@@]23O[C@@H](c2ccccc2)CC=C3C1=O)[C@@H](OC)C[C@H](c1ccccc1)O4
yes
4. O=C1c2ccccc2C(=O)c2c1cc1c(c2[N+](=O)[O-])OCO1
no

----------
Tested on: HCC-2998 colon
Assay: NCI tumour cell line growth inhibition, 48 h
PROPERTY_LABEL: TGI

1. Cc1nc(N(C(C)C)C(C)C)c(C(C)C)o1
> 100 µM
2. N#C/C(=C\c1cc2ccc(N3CCC3)cc2oc1=O)C(=O)N(CC(=O)O)CC(=O)O
> 100 µM
3. N#Cc1c(NC(=O)c2ccccc2F)sc2c1CCCC2
> 25 µM
4. CCOC(=O)C(CCCNC(=O)OC(C)(C)C)N(Cc1ccc(OC)cc1OC)C(=O)CC(=O)CP(=O)(OCC)OCC (stereo not given)
> 100 µM
5. c1ccc(-c2csc3ncn4cnnc4c23)cc1
> 100 µM
6. COc1cc(C(=O)O)c(-c2cc3c(cc2C=O)OCO3)c(OC)c1OC
> 10 µM
7. CN(CCNC(=S)c1cn(C)c2c1ccc1ccccc12)CCNC(=S)c1cn(C)c2c1ccc1ccccc12
> 100 µM
8. c1ccc2c(-c3csc(-c4c[nH]c5ccccc45)n3)c[nH]c2c1
> 100 µM
9. O=C(NCCCCCCCN1CCCCCCC1)C(C1CCCCC1)C1CCCCC1
7.59 µM
10. c1cc(CN2CCNCCNCCNCC2)cc(CN2CCNCCNCCNCC2)c1
> 100 µM
11. NC(=O)c1sc2nc3ccccc3n2c1N
> 100 µM
12. CN1CCC/C1=C1/C(=O)N(c2ccccc2)N=C1c1ccc[nH]1
> 100 µM
13. c1ccc(CN2COc3c(ccc4c5c(ccc34)CN(Cc3ccccc3)CO5)C2)cc1
> 100 µM
14. CC1(C)[C@H](O)[C@H](F)C[C@@]2(C)Oc3ccc(C(=O)Nc4ccc5c(c4)NC(=O)C54CCN(CCCCC#N)CC4)cc3C[C@H]12
15 µM
15. O=C(c1ccco1)c1c(C(F)(F)F)n([O-])c2cc(F)c(F)cc2[n+]1=O
0.0145 µM

----------
Test system: SNB-75 CNS
Assay: NCI tumour cell line growth inhibition, 48 h
Listed compounds paired with reported TGI
PROPERTY_LABEL: TGI

1. COC1=C2CC(C)CC(OC)C(OC(=O)CCCN)C(C)/C=C(\C)C(OC(N)=O)C(OC)/C=C\C=C(/C)C(=O)NC(=CC1=O)C2=O (stereo not given)
36.3 µM
2. N#Cc1cccc(Nc2ncc(-c3ccccc3)o2)c1
> 22.6 µM
3. c1cncc(CSc2ncnc3nc[nH]c23)c1
> 100 µM
4. CNC(=O)CCCNC(=O)CCCC(=O)OC
> 100 µM
5. Cn1c(C(=O)c2cccc3ccccc23)nc2ccccc21
> 100 µM

----------
Test system: MDA-MB-435
Assay: NCI tumour cell line growth inhibition, 48 h
PROPERTY_LABEL: TGI

1) CN(C)c1nc(N)c(C#N)c(C#N)c1C#N
> 10 µM
2) Nc1nc(C(=O)O)c(N=Nc2ccccc2)c(=O)[nH]1
> 100 µM
3) Nc1nc(-c2ccc(Cl)cc2)nc2c1sc(=S)n2-c1ccccc1
> 100 µM
4) Cc1ccc(S(=O)(=O)NC(=O)Nc2cc(Cl)c(S(N)(=O)=O)cc2S(N)(=O)=O)cc1
> 100 µM
5) N#CCNC(=O)c1ccc(-c2ccnc(Nc3ccc(N4CCOCC4)cc3)n2)cc1
> 100 µM
6) C[C@H]1CN(C2COC2)CCN1c1ccc(Nc2cc(-c3ccnc(N4CCn5c(cc6c5CC(C)(C)C6)C4=O)c3CO)cn(C)c2=O)nc1
> 100 µM
7) c1ccc(C2=C(c3ccccc3)Sc3nnc(CCCCCCCCc4nnc5n4NC(c4ccccc4)=C(c4ccccc4)S5)n3N2)cc1
> 100 µM
8) COc1ccc(COc2cc3oc(=O)c4cc(C(C)O)ccc4c3cc2OC)cc1 (stereo unspecified)
> 22.9 µM
9) c1cncc(CSc2ncnc3nc[nH]c23)c1
> 100 µM
10) CCOP(=O)(OCC)C(Cc1ccc(Cl)cc1)NS(=O)(=O)c1ccc(C)cc1 (stereo unspecified)
> 100 µM
11) S=C(NCc1ccc2c(c1)OCO2)N1CCN(c2ncnc3c2oc2ccccc23)CC1
> 100 µM
12) COC(=O)[C@@]1(NC(=O)C(CC(=O)OC(C)(C)C)NC(=O)OC(C)(C)C)C[C@H]1C (stereo partly specified)
> 100 µM
13) Cn1c(C(=O)c2cccc3ccccc23)nc2ccccc21
> 100 µM
14) CSc1c(C#N)c(S)n(-c2ccc(Cl)cc2)c(=O)c1C#N
> 100 µM
15) Cc1ccc(Cl)cc1-n1c(C)nc2c(cnn2-c2ccnc3c(C(F)(F)F)cccc23)c1=O
> 100 µM
16) Cc1cn(C2CC(O)C(Cn3nncc3Cn3ncc(=O)[nH]c3=O)O2)c(=O)[nH]c1=O (stereo unspecified)
> 100 µM
17) c1ccc2c(-c3csc(-c4c[nH]c5ccccc45)n3)c[nH]c2c1
> 100 µM
18) CCn1ccnc1C(=O)/C=C/c1ccc(CC(=O)Nc2ccc(F)cc2)cc1
> 16.7 µM
19) N#Cc1cccc(Nc2ncc(-c3ccccc3)o2)c1
> 25 µM
20) NC(=O)c1sc2nc3ccccc3n2c1N
> 100 µM
21) C[C@@H](NC(=O)c1ccc(F)cc1)c1ccc2c(c1)CCN2C(=O)C1CCOCC1
> 100 µM

----------
Tested on: DU-145 prostate
Assay: NCI tumour cell line growth inhibition, 48 h
PROPERTY_LABEL: TGI (µM)

1) C=CC(=O)N[C@@H](/C=C/C(=O)OCC)Cc1ccc(-c2cc(Cl)cc(Cl)c2)cc1
64.2
2) CC1(C)[C@H](O)[C@H](F)C[C@@]2(C)Oc3ccc(C(=O)Nc4ccc5c(c4)NC(=O)C54CCN(CCCCC#N)CC4)cc3C[C@H]12
17.3
3) COC1=C(OC)C(=O)C(CCCCCCCCCCO)=C(C)C1=O
22.4
4) c1ccc(C2CCCCC2)c(OCCCCCN2CCNCC2)c1
16.2

----------
Tested on: IGROV1 ovarian
Test: NCI tumour cell line growth inhibition, 48 h
PROPERTY_LABEL: TGI (µM)

1) O=C1CSC(c2ccccc2O)N1c1ccc(Oc2ccc(Cl)cc2)c(Cl)c1 (stereo not given)
77.4
2) O=c1ccc2ccccc2c2ccccc12
19
3) O=C1/C(=C/c2ccccc2O)N=C(c2ccccc2)N1c1cc(C(F)(F)F)ccc1Cl
64.3
4) COc1cc(C(=O)/C=C/c2c(C(F)(F)F)nc3ccccn23)cc(OC)c1OC
6.02
5) C=C(CCC=C(C)C)C1CC=C(C)CC1 (stereo not given)
28.4
6) Cc1ccc(-n2c(-c3cc4c([nH]c5ccccc54)c(-c4cccc(O)c4)n3)n[nH]c2=S)cc1
4.74

----------
Test system: K-562 leukemia
Test: NCI tumour cell line growth inhibition, 48 h
Listed molecules paired with reported TGI
PROPERTY_LABEL: TGI

1) Nc1nc2c(ncn2CCCC(c2ccccc2)P(=O)(O)O)c(=O)[nH]1 (stereo not drawn)
> 100 µM
2) Cc1c(C2=NN=C(N=Nc3c(O)cccc3O)/C2=C/c2ccccc2)c(=O)n(-c2ccccc2)n1C
> 100 µM
3) CSc1c(C#N)c(S)n(-c2ccc(Cl)cc2)c(=O)c1C#N
> 100 µM

----------
Tested on: CCRF-CEM leukemia
Assay: NCI tumour cell line growth inhibition, 48 h
PROPERTY_LABEL: GI50

1. c1ccc2c(CNCCN3CCNCC3)c3ccccc3c(CNCCN3CCNCC3)c2c1
2.3 µM
2. CC(=O)OCC(CC[CH2][Sn]([Cl])([Cl])[c]1ccccc1)OC(C)=O (stereo not given)
21.3 µM
3. CCN(Cc1ccc(F)cc1)c1ccc(CO)c(C(F)(F)F)c1
14.7 µM
4. O=C(O)CCCc1ccccc1
> 1000 µM
5. O=S(=O)(NCCCNc1cc(-c2cn(-c3ccccc3)nc2-c2cccc(O)c2)ccn1)c1ccc(F)cc1
2.45 µM
